System: L1210 leukemia ip in BDF1 mice, survival T/C
Experiment: NCI In Vivo Anticancer Drug Screen. Data for tumor model L1210 Leukemia (intraperitoneal) in B6D2F1 (BDF1) mice
Conditions: endpoint: mean survival time; dose: 100.0 mg/kg/injection; schedule: Q04DX003 (ip); vehicle: saline with Tween-80; higher = longer survival
Method: The antitumor activity of compounds was measured in mice bearing transplantable tumors. Survival or tumor size were measured and the results are expressed as the measurement made in the treated group (T) divided by the measurement made in the vehicle treated control group (C). The tumor model used in this assay is L1210 Leukemia (intraperitoneal) in B6D2F1 (BDF1) mice
Toxic doses and inconclusive results are not listed.
endpoint.name: T/C

| compound | measured.on | test.value |
| --- | --- | --- |
| COc1ccc(OC)c(NC(=O)c2ccccc2Cl)c1 | L1210 leukemia ip in BDF1 mice, survival T/C | 95 % of control |
| COc1ccc(C(=O)Nc2ccc(Br)cc2)cc1 | L1210 leukemia ip in BDF1 mice, survival T/C | 97 % of control |
| Cc1ccc(O)cn1 | L1210 leukemia ip in BDF1 mice, survival T/C | 100 % of control |
| CC(C)COC(=O)c1ccc(NC(=O)Nc2ccccc2)cc1 | L1210 leukemia ip in BDF1 mice, survival T/C | 92 % of control |
| NC1CCc2ccccc2C(O)C1c1ccccc1 (configuration not stated) | L1210 leukemia ip in BDF1 mice, survival T/C | 102 % of control |
| CN(C)C(=O)c1cccc(NC(=O)NCc2cccc(N3C(N)=NC(N)=NC3(C)C)c2)c1 | L1210 leukemia ip in BDF1 mice, survival T/C | 97 % of control |
| O=C(CCl)Oc1ccccc1 | L1210 leukemia ip in BDF1 mice, survival T/C | 101 % of control |
| Cc1ccc(S(=O)(=O)Oc2ccc3ccccc3c2)cc1 | L1210 leukemia ip in BDF1 mice, survival T/C | 98 % of control |
| O=C(/C=C/c1ccc(Br)cc1)c1ccc(Cl)cc1 | L1210 leukemia ip in BDF1 mice, survival T/C | 96 % of control |
| COC(=O)CC(CC(=O)OC)c1cccc([N+](=O)[O-])c1 | L1210 leukemia ip in BDF1 mice, survival T/C | 106 % of control |
| c1cc2c3c(c1)ncn3CCC2 | L1210 leukemia ip in BDF1 mice, survival T/C | 102 % of control |
| Cc1cccn1C(C)c1ccccc1 (configuration not stated) | L1210 leukemia ip in BDF1 mice, survival T/C | 97 % of control |
| CCn1nnnc1-c1ccc(Cl)cc1 | L1210 leukemia ip in BDF1 mice, survival T/C | 98 % of control |
| c1ccc(N/N=C(\Sc2ccccc2)c2ccccc2)cc1 | L1210 leukemia ip in BDF1 mice, survival T/C | 113 % of control |
| S=c1nc2[nH]c3ccccc3c2n[nH]1 | L1210 leukemia ip in BDF1 mice, survival T/C | 94 % of control |
| O=C(/C(=C\Cl)CBr)c1ccccc1 | L1210 leukemia ip in BDF1 mice, survival T/C | 98 % of control |
| O=C1C2CCCC1C(c1ccccc1)C=C2c1ccc(O)cc1 (configuration not stated) | L1210 leukemia ip in BDF1 mice, survival T/C | 97 % of control |
| COc1ccc(/C=C/C(=O)c2cc(O)cc(OC)c2)cc1 | L1210 leukemia ip in BDF1 mice, survival T/C | 100 % of control |
| COc1ccc(C(c2ccc(Cl)cc2)N2CCNCC2)cc1 (configuration not stated) | L1210 leukemia ip in BDF1 mice, survival T/C | 102 % of control |
| CCOc1nc(S(=O)(=O)CC)ncc1C | L1210 leukemia ip in BDF1 mice, survival T/C | 105 % of control |
| CCCCC(NC(=O)CNC(=O)OCc1ccccc1)C(=O)OC (configuration not stated) | L1210 leukemia ip in BDF1 mice, survival T/C | 108 % of control |
| CC(C)(C)c1ccc(OC(=S)Nc2ccccc2)cc1 | L1210 leukemia ip in BDF1 mice, survival T/C | 111 % of control |
| O=[N+]([O-])c1cc(C(F)(F)F)ccc1Oc1ccccc1 | L1210 leukemia ip in BDF1 mice, survival T/C | 95 % of control |
| NC(=O)OCCOCCOC(N)=O | L1210 leukemia ip in BDF1 mice, survival T/C | 98 % of control |
| CCCCCCP(=O)(CCCCCC)C1CCCC1 | L1210 leukemia ip in BDF1 mice, survival T/C | 91 % of control |
| O=c1cc(Cc2ccccc2)[nH]c(=S)[nH]1 | L1210 leukemia ip in BDF1 mice, survival T/C | 99 % of control |
| O=c1[nH]c(=O)c2ncsc2[nH]1 | L1210 leukemia ip in BDF1 mice, survival T/C | 103 % of control |
| O=C(c1ccccc1)C(O)(c1ccccc1)C1CCCC/C1=N\N(c1ccccc1)c1ccccc1 (configuration not stated) | L1210 leukemia ip in BDF1 mice, survival T/C | 92 % of control |
| CN(C)N=Nc1ccc2c(c1)C(=O)NC2=O | L1210 leukemia ip in BDF1 mice, survival T/C | 96 % of control |
| CC/C(C)=C(/C(=O)O)c1ccccc1 | L1210 leukemia ip in BDF1 mice, survival T/C | 91 % of control |
| O=C(NC(=S)Nc1cccc2ccc(O)cc12)c1ccc(Cl)cc1Cl | L1210 leukemia ip in BDF1 mice, survival T/C | 100 % of control |
| CN(C)c1ccc(/C=N/Nc2ncnc3nc[nH]c23)cc1 | L1210 leukemia ip in BDF1 mice, survival T/C | 98 % of control |
| O=C(O)CCC(NC(=O)OCc1ccccc1)C(=O)NC(Cc1ccccc1)C(=O)O (configuration not stated) | L1210 leukemia ip in BDF1 mice, survival T/C | 102 % of control |
| O=C(Nc1ccccc1[N+](=O)[O-])C(=O)Nc1ccccc1[N+](=O)[O-] | L1210 leukemia ip in BDF1 mice, survival T/C | 95 % of control |
| CC(C)CCCCc1c[nH]c(=O)[nH]c1=O | L1210 leukemia ip in BDF1 mice, survival T/C | 94 % of control |
| COC1CC(O)C(O)C(C)O1 (configuration not stated) | L1210 leukemia ip in BDF1 mice, survival T/C | 91 % of control |
| Nc1ccc(I)cc1 | L1210 leukemia ip in BDF1 mice, survival T/C | 104 % of control |
| Cc1ccc(S(N)(=O)=O)cc1 | L1210 leukemia ip in BDF1 mice, survival T/C | 98 % of control |
| COC1CC(N=[N+]=[N-])C(OS(C)(=O)=O)C(C)O1 (configuration not stated) | L1210 leukemia ip in BDF1 mice, survival T/C | 107 % of control |
| C/C(=N/Nc1ccc([N+](=O)[O-])cc1[N+](=O)[O-])c1ccccc1 | L1210 leukemia ip in BDF1 mice, survival T/C | 88 % of control |
| COc1ccc(NC(=O)C(c2ccccc2)c2ccccc2)cc1 | L1210 leukemia ip in BDF1 mice, survival T/C | 92 % of control |
| CNC(=O)Oc1cccc(NC(=O)N(C(C)C)C(C)C)c1 | L1210 leukemia ip in BDF1 mice, survival T/C | 91 % of control |
| O=S(=O)(CS(=O)(=O)Nc1ccccc1)Nc1ccccc1 | L1210 leukemia ip in BDF1 mice, survival T/C | 111 % of control |
| CC(=O)Oc1cc(OC(C)=O)c(Oc2cc(OC(C)=O)c(Oc3cc(OC(C)=O)c(OC(C)=O)c(OC(C)=O)c3)c(OC(C)=O)c2)c(OC(C)=O)c1 | L1210 leukemia ip in BDF1 mice, survival T/C | 95 % of control |
| C#CCOCC1CNC(=S)O1 (configuration not stated) | L1210 leukemia ip in BDF1 mice, survival T/C | 95 % of control |
| Cc1cnc(Cl)c(Br)c1 | L1210 leukemia ip in BDF1 mice, survival T/C | 100 % of control |
| CCOC(=O)C1C=CCCC1 (configuration not stated) | L1210 leukemia ip in BDF1 mice, survival T/C | 91 % of control |
| CC(=O)c1cccc(NC(=O)Oc2ccc(-c3ccccc3)cc2)c1 | L1210 leukemia ip in BDF1 mice, survival T/C | 90 % of control |
| O=Cc1cn(C2CC(O)C(CO)O2)c(=O)[nH]c1=O (configuration not stated) | L1210 leukemia ip in BDF1 mice, survival T/C | 99 % of control |
| CN(C)C(=O)c1cccc(NC(=O)Oc2ccccc2)c1 | L1210 leukemia ip in BDF1 mice, survival T/C | 102 % of control |
| CN(C)N=Nc1ccc([N+](=O)[O-])cc1C(N)=O | L1210 leukemia ip in BDF1 mice, survival T/C | 108 % of control |
| Cc1ccc(S(=O)(=O)N/N=C2\CC3(Cl)CCC2C3)cc1 (configuration not stated) | L1210 leukemia ip in BDF1 mice, survival T/C | 92 % of control |
